Recorded measurements of Kd, one per entry
- test.system: T1, human CD3e/d (human, UniProt P07766 23-126; P04234 22-105)
- T1 construct: Bought soluble protein; also called hCD3e/d; human CD3/ed (Sino CT038-H2508H)
- T1 sequence (P07766 23-126, chain 1 of 2): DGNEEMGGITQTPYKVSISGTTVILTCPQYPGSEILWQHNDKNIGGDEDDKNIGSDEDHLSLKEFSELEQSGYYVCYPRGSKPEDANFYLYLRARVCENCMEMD
- T1 sequence (P04234 22-105, chain 2 of 2): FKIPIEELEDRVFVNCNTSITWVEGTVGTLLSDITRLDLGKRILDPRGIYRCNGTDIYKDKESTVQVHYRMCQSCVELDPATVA
- experiment.notes: SPR (Carterra LSA), mAb on chip
A number alone suffices; assume nM.

Data request: Requested field: Kd. Item: mAb 228 (antibody, V domains shown, VH and VL only) VH: EVQLLESGGGLVQPGGSLRLSCAASGFTFSNYAMNWVRQAPGKGLEWVSTISGSGGGKYYADSVKGRFTISRDNSKNTLYLHMNSLRAEDTAVYYCAKDPVQDRYYFYYYYMDVWGKGTTVTVSS VL: EIVLTQSPDFQSVTPKEKVTITCRASQSIGSSLHWYQQKPDQSPKLLIKYASQSISGVPSRFSGSGSGTDFTLTINSLEAEDAAAYYCHQSSSLPHTFGQGTKLEIK
Data returned: 25

Data request: What do you get for mAb 83 (antibody, V domains shown, VH and VL only) VH: QVQLVESGGGVVQPGRSLRLSCAASGFTFSGYGMHWVRQAPGKGLDWVAIIYYNGNNKYYADSVKGRFTISRDNSKNTLYLQMNSLRAEDTAVYYCARGGGYNWFDPWGQGTLVIVSS VL: DIQMTQSPSSLSASVGDRVTITCRPSQIIINYLNWYQQKPGKAPKLLIYAASSLQSGVPSRFSGSGSGTDFTLTISSLQPEDFATYYCQQSYSTPFTFGRGTRLEIK ?
Data returned: 86.5

Data request: What do you get for mAb 316 (antibody, V domains shown, VH and VL only) VH: EVQLLESGGGLVQPGGSRRLSCAASGFTFRTYAMSWVRQAPGKGLEWVSVINGRGDDTNYADSVKGRFTISRDNSKNILFLQMNSLRAEDTAVYYCAKKYSYYYYYMDVWGKGTTVTVSS VL: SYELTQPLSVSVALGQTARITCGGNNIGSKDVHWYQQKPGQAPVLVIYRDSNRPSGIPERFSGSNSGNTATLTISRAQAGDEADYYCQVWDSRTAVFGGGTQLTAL ?
Data returned: 70
